system: P. aeruginosa; assay: Antibiotic testing (MIC), gram negative P. aeruginosa; format: cell-based; conditions: Pseudomonas aeruginosa; read-out: MIC, P. aeruginosa
measured.endpoint: MIC

Suppose we examine the molecule `C[C@@H]1CCCCCCCCC[C@H](O)C(=O)C[C@@H](SC[C@@H](O)C(=O)O)C(=O)O1` ; what MIC value has been reported?
> 1000 µM

Suppose we examine the molecule `COC(=O)[C@H](O)CS[C@@H]1CC(=O)[C@@H](O)CCCCCCCCC[C@@H](C)OC1=O` ; what MIC value has been reported?
> 250 µM

Suppose we examine the molecule COC(=O)[C@@H](CS[C@@H]1CC(=O)[C@@H](OC(C)=O)CCCCCCCCC[C@@H](C)OC1=O)OC(C)=O [BPL 76-diacetate] ; what MIC value has been reported?
> 125 µM

Suppose we examine the molecule `C[C@H]1OC(=O)/C=C/[C@@H](O)[C@@H](O)CCCCCCCC[C@@H]1O` ; what MIC value has been reported?
> 1000 µM

Suppose we examine the molecule `C[C@H]1OC(=O)/C=C/C(=O)[C@@H](OC(=O)CCC(=O)O)CCCCCCCC[C@@H]1O` ; what MIC value has been reported?
> 1000 µM

Suppose we examine the molecule `C[C@@H]1CCCCCCCCC[C@H](OC(=O)CCC(=O)O)C(=O)/C=C/C(=O)O1` ; what MIC value has been reported?
> 250 µM

Suppose we examine the molecule `C[C@@H]1CCCCCCCCC[C@H](OC(=O)CCC(=O)O)[C@H](O)/C=C/C(=O)O1` ; what MIC value has been reported?
> 250 µM

Suppose we examine the molecule C[C@@H]1CC(O)CCCCCCC[C@H](OC(=O)CCC(=O)O)C(=O)/C=C/C(=O)O1 (stereo partly shown) ; what MIC value has been reported?
> 1000 µM

Suppose we examine the molecule `C[C@@H]1CCCCCCCCC[C@H](OC(=O)CCC(=O)O)C(=O)C[C@@H](SC[C@@H](O)C(=O)O)C(=O)O1` ; what MIC value has been reported?
> 250 µM

Suppose we examine the molecule `CC(=O)O[C@H]1CCCCCCCC[C@H](OC(C)=O)[C@H](OC(C)=O)/C=C/C(=O)O[C@@H]1C` ; what MIC value has been reported?
> 500 µM
